Test system: MOLT-4
Assay: NCI tumour cell line growth inhibition, 48 h
Activity calls are given as the source filed them. Cut-off read from the data, not from the text of the source: active = GI50 up to about 1.1 µM and inactive = higher.
Parameter GI50: see the listing below.
MEASURED_METRIC: GI50

* CCc1cccc(C(C)C)c1NC(=O)C(=O)CC(=O)c1c(C)[n+]([O-])c2ccccc2[n+]1[O-] | 56.1 µM (inactive)
* CCC(C)(C)n1c(C)nc2c1C(=O)c1ccccc1C2=O | 18.8 µM (inactive)
* COC(=O)[C@H](Cc1ccccc1)NC(=O)CCCCCCC(=O)NO | 2.7 µM (inactive)
* COC(=O)C1CC(=O)CCC1c1ccccc1 (stereo unspecified) | > 100 µM (inactive)
* N#CC1(C#N)C2C=CC(C3CCC=C32)C1(C#N)C#N (stereo unspecified) | 2.14 µM (inactive)
* CO[C@@]1(c2ccccc2)O[C@H]2OCCC2[C@H]1c1ccc(Cl)cc1 (stereo partly specified) | 17.9 µM (inactive)
* Cc1cc(N(CCCCl)CCCCl)ccc1/C=N/c1cccc(Cl)c1 | 4.41 µM (inactive)
* C/C(=C\CCC1=CC(=O)OC1)CC[C@@H]1[C@H]2C(=O)CC(C)[C@@]3(C)CC[C@]1(C)[C@@]23C (stereo partly specified) | > 10 µM (inactive)
* S=C(c1c[nH]c2ccccc12)N1CCN(c2ccccc2)CC1 | > 100 µM (inactive)
* CCOC(=O)/C=C(/CN1C(=O)c2ccccc2C1=O)c1ccccc1 | > 100 µM (inactive)
* Clc1cc(Cl)c2ns[s+]c2c1Cl | > 100 µM (inactive)

* * *

System: NCI-H460
Experiment: NCI tumour cell line growth inhibition, 48 h
The source made the active and inactive calls. Rule as the data show it: active = GI50 up to about 1.1 µM and inactive = higher.
MEASURED_METRIC: GI50

• C=C(CN1CC2C[C@](C(=O)OC)(c3cc4ccccc4[nH]3)C1C(OC)C2OC)S(=O)(=O)c1ccccc1 (stereo partly drawn) = 3.07 µM (inactive)
• C[C@]1(O)O[C@@H]2OCC[C@@H]2C2=C1C(=O)c1ccccc1C2=O = 16 µM (inactive)
• CCCNCC(O)CNc1ccc(NCC(O)CNCCC)c2c1C(=O)c1ccccc1C2=O (stereo not drawn) = 2.42 µM (inactive)
• Cc1nc2c(nc1C)-c1c(c3c(n1C)C(=O)CCC3)C(=O)C2=O = 1.23 µM (inactive)
• COc1cc2c(cc1OC)C1CCc3ccccc3CN1CC2 (stereo not drawn) = > 100 µM (inactive)
• Oc1ccccc1/C=N/c1nc2cc3sc(/N=C/c4ccccc4O)nc3cc2s1 = 4.61 µM (inactive)
• CN1C(=O)C(O)CC1c1cccc(C(F)(F)F)c1 (stereo not drawn) = > 100 µM (inactive)
• O=c1c2ccccc2nc(-c2ccccc2Cl)n1NC1OC(CO)C(O)C(O)C1O (stereo not drawn) = > 100 µM (inactive)
• C=C1C(OC(=O)/C=C/c2ccccc2)CC(OC(C)=O)C2(C)C1CC1CC(OC(C)=O)C(C)=C(C(OC(C)=O)C2OC(C)=O)C1(C)C (stereo not drawn) = 6.67 µM (inactive)
• NCCCNCCCCN(CCCN)/[N+]([O-])=N\O = > 100 µM (inactive)
• CCCNC(=O)C(C)(Cl)C(=O)c1ccccc1O (stereo not drawn) = > 100 µM (inactive)
• O=C(CC1(O)C(=O)Nc2c(Cl)ccc(Cl)c21)c1ccc(F)cc1 (stereo not drawn) = 54.8 µM (inactive)
• CC1(C)CCc2c(ccc(C(=O)/C=C/c3ccc(O)cc3)c2O)O1 = 12.1 µM (inactive)
• S=C1c2cc(Cl)ccc2N=C(NC2CCCC2)C2CSCN12 (stereo not drawn) = > 100 µM (inactive)
• Cn1c2ccccc2c2c3c(c4c5ccccc5n(C)c4c21)C(=O)NC3=O = 7.6 µM (inactive)
• C/C(=N/O)c1ccc2c(c1)/C(=N/O)c1cc(/C(C)=N/O)ccc1-2 = 17.7 µM (inactive)
• COc1ccc(C2c3cc4c(cc3OC(N3CCOCC3)C2C)OCO4)c(OC)c1 (stereo not drawn) = 5.12 µM (inactive)
• O=C(Nc1ccccc1)c1cc(S(=O)(=O)Nc2n[nH]c(=O)n2-c2ccccc2)c(S)cc1Cl = > 100 µM (inactive)
• CSC1C=C(C(C)C)CCC1(C)SC (stereo not drawn) = 17.2 µM (inactive)
• Cc1nn(-c2ccccc2)c2nc(N3CCOCC3)nnc12 = > 100 µM (inactive)
• C=C1CC(C)(COc2ccc3c(C)cc(=O)oc3c2)OC1=O (stereo not drawn) = 5.3 µM (inactive)
• Nc1nc(SCCC/C=C/B(O)O)nc2c1ncn2C1OC(COP(=O)(O)O)C(O)C1O (stereo not drawn) = > 203 µM (inactive)
• CC(OP(=O)(O)O)C(N)C(=O)O (stereo not drawn) = > 100 µM (inactive)
• COc1ccc2c(Cl)cc(NC(=S)Nc3ccccc3)nc2c1 = 32.3 µM (inactive)
• C=CCN1C(=O)/C(=C/c2cccs2)N=C1SC/C=C/C = 38.3 µM (inactive)
• Cn1c(=O)c2c(nc(N3CCOCC3)n2CCCNCC(O)c2ccc(O)c(O)c2)n(C)c1=O (stereo not drawn) = > 100 µM (inactive)
• CCOc1cc(/C=N\O)cc(/C=N/O)c1O = 31.9 µM (inactive)
• COc1ccc(CCCC(=O)O)c(C)c1 = 11.7 µM (inactive)
• C=C(Cl)C(Cl)(CBr)CCCC(C)(C)Cl (stereo not drawn) = 5.71 µM (inactive)
• CCOC(=O)C1C(c2ccc(Br)cc2)N(Cc2ccccc2)C(c2ccc(Br)cc2)C(C(=O)OC)S1(=O)=O (stereo not drawn) = > 100 µM (inactive)
• CC(C)=C=CC(C)(C)NS(=O)(=O)NC(C)(C)C=C=C(C)C = 80.9 µM (inactive)
• Nc1ncnc2c1ncn2[C@@H]1C[C@H](NO)[C@@H](O)[C@H]1O = > 100 µM (inactive)
• c1ccc(SC(Sc2ccccc2)=C2CCC2)cc1 = > 100 µM (inactive)
• C#C[C@]1(O)CC[C@H]2[C@@H]3CCC4=C/C(=N/CCOC(=O)c5cccc6cc7ccccc7nc56)CC[C@@H]4[C@H]3CC[C@@]21C = 14.9 µM (inactive)
• Cc1c2ncccc2c(C)c2c1[nH]c1ccc(O)cc12 = 1.31 µM (inactive)
• O=C(O)CSc1nnc(-c2ccccc2O)[nH]1 = > 100 µM (inactive)
• CCC12C=CCN(CCc3c([nH]c4ccccc34)/C=C\1)C2 (stereo not drawn) = > 100 µM (inactive)
• O=C1NC(=O)C(c2c[nH]c3ccccc23)=C1c1cn(C(c2ccccc2)(c2ccccc2)c2ccccc2)cn1 = 3.66 µM (inactive)
• O=C1C(=Cc2ccc(F)cc2)C(=O)c2ccccc21 = > 100 µM (inactive)
• COC(=O)[C@H](Cc1ccccc1)NC(=O)CCCCCCC(=O)NO = 12.3 µM (inactive)
• Cc1nc2ccccc2c(=O)n1NC(=O)Cc1ccccc1 = > 100 µM (inactive)
• Cc1nnc2sc(-c3ccc([N+](=O)[O-])o3)nn12 = 17.9 µM (inactive)
• CC(=O)OCC1=C(C)C(OC(=O)C(OC(C)=O)[C@@H](NC(=O)c2ccccc2)c2ccccc2)CCC1(C)C (stereo partly drawn) = > 100 µM (inactive)

* * *

Tested on: Hs-578T
Experiment: NCI tumour cell line growth inhibition, 48 h
Activity calls are given as the source filed them. Cut-off read from the data, not from the text of the source: active = GI50 up to about 1.1 µM and inactive = higher.
Labels: true (1) = active, false (0) = inactive

- CC(=O)OC1C(C)OC(OC2C[C@](O)(C(C)=O)Cc3c(O)c4c(c(O)c32)C(=O)c2ccccc2C4=O)C(F)C1OC(C)=O (stereo not given in full): true (1)
- C[C@@H]1C[C@H]2[C@@H]3CCC4=CC(=O)C=C[C@]4(C)[C@@]3(Cl)[C@@H](Cl)C[C@]2(C)[C@@]1(O)C(=O)COP(=O)(O)O: false (0)
- C[C@]12CCC(=O)[C@@H](CCC3=CC(=O)C=CC3=O)[C@@H]1CCC2=O: false (0)
- Nc1nc(Nc2ccc(Cl)cc2)sc1C(=O)c1cccs1: false (0)
- COc1ccc2c(Cl)cc(NC(=S)Nc3ccccc3)nc2c1: false (0)
- CC(=O)Nc1ccc2cc3[nH]c4cc(NC(C)=O)ccc4c3nc2c1: false (0)
- COC(=O)CCC(=O)c1ccc2c(c1)CC1(Cc3ccccc3C1)C2: false (0)
- S=C1c2cc(Cl)ccc2N=C(NC2CCCC2)C2CSCN12 (stereo not given): false (0)
- COC(=O)C1=CON2C3CC4CC(C3)CC(C4)C12C (stereo not given): false (0)
- Cn1c2ccccc2n2c3ncccc3/c(=N/CCCC(=O)O)c(C#N)c12: false (0)
- C=C1CC(C)(COc2ccc3c(C)cc(=O)oc3c2)OC1=O (stereo not given): false (0)
- CCOC(=O)CSc1nc(-c2ccccc2)c(C#N)c(=O)[nH]1: false (0)
- Cc1ccc(C(=O)OC[C@H]2CC[C@@H](n3cc(N(C)C4CCCCC4)c(=O)[nH]c3=O)O2)cc1: false (0)
- CCCC/N=C(/c1ccccc1)N1CCOCC1: false (0)
- Cc1ccc2c(c1)-c1nc(N)c(C#N)c(-c3ccc(Cl)cc3)c1CCS2(=O)=O: false (0)
- CC1(C)CC(=O)c2c(nc3c(ccc4ccccc43)c2-c2ccc(NC(=O)CCCCC(=O)Nc3ccc(-c4c5c(nc6c4ccc4ccccc46)CC(C)(C)CC5=O)cc3)cc2)C1: false (0)
- C=C(Cl)/C(=C\Cl)CCC(Cl)C(C)C (stereo not given): false (0)
- Cc1ccc(-c2cc(-c3ccc(Cl)cc3)nc(/N=C3\C(=O)N(CN(C)C)c4ccccc43)n2)cc1: false (0)
- O=C(O)Cc1cccnc1: false (0)
- COc1cccc2nc3c(C(=O)NCCN(C)C)cccc3cc12: false (0)
